The origin of these recorded values is a collection of fitness landscapes (doi:10.1016/j.celrep.2020.107928).

B1: Caulobacter ParB omega fusion; a variant is named by its letters at X, in order, B8GW30 (parent)
chain: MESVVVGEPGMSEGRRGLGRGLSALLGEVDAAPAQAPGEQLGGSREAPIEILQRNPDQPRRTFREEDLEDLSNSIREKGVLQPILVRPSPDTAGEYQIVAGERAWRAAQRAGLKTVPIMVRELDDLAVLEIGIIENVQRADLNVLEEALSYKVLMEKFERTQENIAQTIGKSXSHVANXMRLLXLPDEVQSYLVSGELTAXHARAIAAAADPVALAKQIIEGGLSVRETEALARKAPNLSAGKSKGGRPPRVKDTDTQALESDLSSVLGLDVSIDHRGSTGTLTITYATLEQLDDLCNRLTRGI

# Variants of: B1
# measurement_notes: one-hybrid fitness for binding parS DNA (scaled: cognate 1, non-cognate 0); higher = stronger binding
# condition_details: with parS DNA site
Over roughly 81,000 sequences, “one-hybrid fitness for binding parS DNA” has its median near -0.17; the highest 2% begin near 0.51. This excerpt belongs to a sample that is enriched for the highest values.
Please respond with reported one-hybrid fitness for binding parS DNA for every item in the list.

Asked: Name the recorded one-hybrid fitness for binding parS DNA for RRWT .
Given back: 0.682

Asked: What about VWKI ?
Given back: ≤ 0.2

Asked: What about IMIV ?
Given back: ≤ 0.2

Asked: What about SQMR ?
Given back: ≤ 0.2

Asked: What about RRWR ?
Given back: ≤ 0.2

Asked: What about TTYT ?
Given back: ≤ 0.2

Asked: What about RRLQ ?
Given back: ≤ 0.2

Asked: What about RRCT ?
Given back: 0.587

Asked: What about RRGM ?
Given back: 0.391

Asked: What about MLGM ?
Given back: ≤ 0.2

Asked: What about RRCQ ?
Given back: ≤ 0.2
